pIC50 for 3',5'-cyclic-AMP phosphodiesterase 4B (Homo sapiens), merged from several publications.
pIC50: −log10 of the molar value.
Label T when pIC50 >= 7; otherwise F.

Please tell me: is the compound C=CCc1c(C)nc(-c2cccc(C)c2)nc1Nc1ccc(C(=O)O)cc1 at or over 7 in terms of pIC50?
F

Please tell me: is the compound C=CCc1c(-c2cccc(NS(=O)(=O)c3cccs3)c2)oc(=O)c2ccccc12 at or over 7 in terms of pIC50?
F

Please tell me: is the compound CC(=O)c1ccc(C(=O)Nc2c(Cl)cncc2Cl)c2cc(C(F)(F)F)nn12 at or over 7 in terms of pIC50?
T

Please tell me: is the compound Cc1cc(S(C)(=O)=O)cc2c1NNC(C(N)=O)=C2Nc1cccc(C#N)c1 at or over 7 in terms of pIC50?
T

Please tell me: is the compound CCn1c(Nc2ccncc2F)nc2c(C3CCN(C(=O)OC)CC3)csc2c1=O at or over 7 in terms of pIC50?
F

Please tell me: is the compound COc1ccc(C2=NNC(=O)C2(C)C)c2[nH]c(C(F)(F)F)nc12 at or over 7 in terms of pIC50?
F

Please tell me: is the compound CCn1c(Nc2ccncc2F)nc2ccsc2c1=O at or over 7 in terms of pIC50?
F

Please tell me: is the compound N#Cc1cccc(-c2nc(N3CCC(C(=O)O)CC3)cc3cccnc23)c1 at or over 7 in terms of pIC50?
F

Please tell me: is the compound COc1ccc(C2=Nc3c(C(C)(C)C)nn(CCCO)c3C(=O)NC2)cc1-c1ccccc1F at or over 7 in terms of pIC50?
F

Please tell me: is the compound CCCOCCn1c(=O)c(NCCN2CCOCC2)nc2cnc(-c3ccc(OC)nc3)cc21 at or over 7 in terms of pIC50?
F

Please tell me: is the compound CN(C)c1ccc(-c2nc3c(c(Nc4ccc(CC(=O)O)cc4)n2)SCCC3)cc1 at or over 7 in terms of pIC50?
T

Please tell me: is the compound CN(C)c1nc2sc3c(NCCN4CCOCC4)ncnc3c2c2c1COC(C)(C)C2 at or over 7 in terms of pIC50?
T

Please tell me: is the compound COc1ccc(-c2nc(C(=O)NCc3ccc(F)cc3F)c([C@H](C)N)o2)c2ccc(C(F)(F)F)nc12 at or over 7 in terms of pIC50?
T

Please tell me: is the compound O=C(c1ccc(-c2ccccc2)o1)N1CCc2ccccc2C1 at or over 7 in terms of pIC50?
F

Please tell me: is the compound COc1cc2c(Nc3cccc4cccnc34)c(C(N)=O)cnc2cc1-c1c(C)noc1C at or over 7 in terms of pIC50?
T

Please tell me: is the compound CC1(C)CCc2c(N3CCOCC3)nc3sc4c(NCCN5CCOCC5)ncnc4c3c2C1 at or over 7 in terms of pIC50?
T

Please tell me: is the compound CS(=O)(=O)c1cc(F)c2c(c1)C(Nc1cncc(F)c1)=C(C(N)=O)NN2 at or over 7 in terms of pIC50?
T

Please tell me: is the compound C=CCc1c(C)nc(-c2ccc(OC)cc2)nc1Nc1ccc(CC(=O)O)cc1 at or over 7 in terms of pIC50?
F
